Below: a set of entries, each annotated with reported IC50, cell viability (CellTiter-Glo, 72 h), TMD-8 cells.
Biological target: human receptor tyrosine kinase like orphan receptor 1 (ROR1) (human, UniProt Q01973 30-937)
Sequence (Q01973 30-937): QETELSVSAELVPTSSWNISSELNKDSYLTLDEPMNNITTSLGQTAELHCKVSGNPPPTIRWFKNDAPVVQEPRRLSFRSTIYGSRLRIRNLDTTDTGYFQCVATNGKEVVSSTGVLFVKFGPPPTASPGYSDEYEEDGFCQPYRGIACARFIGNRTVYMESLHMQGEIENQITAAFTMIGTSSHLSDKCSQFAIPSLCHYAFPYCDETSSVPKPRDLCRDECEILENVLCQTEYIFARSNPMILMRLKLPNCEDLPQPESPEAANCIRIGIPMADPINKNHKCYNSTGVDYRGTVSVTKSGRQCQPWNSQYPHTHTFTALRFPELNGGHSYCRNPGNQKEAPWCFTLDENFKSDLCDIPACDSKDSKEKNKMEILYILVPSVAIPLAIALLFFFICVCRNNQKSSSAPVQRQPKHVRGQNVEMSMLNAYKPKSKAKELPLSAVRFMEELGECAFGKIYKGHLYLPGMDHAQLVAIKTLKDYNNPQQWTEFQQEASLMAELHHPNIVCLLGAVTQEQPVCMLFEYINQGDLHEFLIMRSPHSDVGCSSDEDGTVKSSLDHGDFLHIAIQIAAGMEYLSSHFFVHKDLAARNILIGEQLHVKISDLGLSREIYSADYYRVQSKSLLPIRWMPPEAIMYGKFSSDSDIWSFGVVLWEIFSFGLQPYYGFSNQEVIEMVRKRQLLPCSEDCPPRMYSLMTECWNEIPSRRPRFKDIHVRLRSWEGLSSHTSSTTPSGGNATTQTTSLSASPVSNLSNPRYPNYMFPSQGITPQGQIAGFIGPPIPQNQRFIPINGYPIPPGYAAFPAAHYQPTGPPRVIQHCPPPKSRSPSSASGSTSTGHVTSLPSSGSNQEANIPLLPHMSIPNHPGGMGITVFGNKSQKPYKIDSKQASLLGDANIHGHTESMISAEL
Assay: cell-based or functional assay
Please reply with the bare figure in nM and do not write the unit itself.

binder	measured_value
ADC-A (antibody, human IgG1, kappa, V domains shown, MC-VC-PAB-MMAE bonded via cysteine residues of the antibody (chain and positions not stated); MC-VC-PAB-MMAE bonded via cysteine residues of the antibody (chain and positions not stated); DAR 3.89 to 5.09, Antibody-drug conjugate of Ab1; also called Ab1-MC-VC-PAB-MMAE) VH: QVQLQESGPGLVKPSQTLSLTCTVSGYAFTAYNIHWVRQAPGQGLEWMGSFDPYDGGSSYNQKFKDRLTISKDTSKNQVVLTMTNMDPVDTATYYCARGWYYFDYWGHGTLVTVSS VL: DIVMTQTPLSLPVTPGEPASISCRASKSISKYLAWYQQKPGQAPRLLIYSGSTLQSGIPPRFSGSGYGTDFTLTINNIESEDAAYYFCQQHDESPYTFGEGTKVEIKR	122

Below: the item to evaluate.
What does the record list as IC50, cell viability (CellTiter-Glo, 72 h), TMD-8 cells for ADC-B (antibody, human IgG1, kappa, V domains shown, SMCC-DM1 bonded via lysine residues of the antibody (chain and positions not stated); SMCC-DM1 bonded via lysine residues of the antibody (chain and positions not stated); DAR 3.0 to 3.20) VH: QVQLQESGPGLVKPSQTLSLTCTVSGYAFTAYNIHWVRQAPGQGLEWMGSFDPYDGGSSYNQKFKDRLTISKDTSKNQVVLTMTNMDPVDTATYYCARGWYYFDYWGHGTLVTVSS VL: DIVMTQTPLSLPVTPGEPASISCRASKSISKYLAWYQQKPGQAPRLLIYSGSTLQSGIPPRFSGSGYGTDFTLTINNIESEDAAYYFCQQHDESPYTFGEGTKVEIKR ? 50
